# targetOrTestSystem: Rac GTPase-activating protein 1 (Homo sapiens)
# testDetails: blockers of MgcRacGAP-driven Rac1 GTP hydrolysis – biochemical, ADP Hunter fluorescence, primary and confirmatory, confirmation (AID 624330);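 also: fluorescence reports GDP produced by GAP-driven GTP hydrolysis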
# assayContext: MgcRacGAP-stimulated Rac1 GTP hydrolysis, at 30 µM, active compounds read high, GST-tagged Rac1 F28L mutant substrate
Screen size: about 340,000 compounds; about 2,100 (0.62%) were called active. A selection follows. Potency and affinity values are given separately.
propertyLabel: inhibition (%)
Give bare numbers, in %.

Known inhibition results, listed for orientation:
Cc1cccc(OCC(=O)N2CCN(C(=O)Cc3ccccc3)CC2)c1 | 8.65
Cc1ccc(OCC(=O)N2CCN(C(=O)c3ccc([N+](=O)[O-])cc3)CC2)cc1 | 4.34
CCOc1ccc(S(=O)(=O)n2c([N+](=O)[O-])cnc2C)c(C)c1C | 6.34

For every listed record, write down its inhibition.
1. CCOC(=O)N1CCN(C(=O)COc2ccc([N+](=O)[O-])cc2)CC1
2. Cc1cccc2sc(NC(=O)CSc3nc4ccccc4o3)nc12

1: -2.93; 2: 7.18

Kindly note the recorded inhibition for `O=C(COc1ccc2ccccc2c1)N1CCCC1` , which is 7.41

* * *

Assign inhibition to each entry below.
# targetOrTestSystem: Rac GTPase-activating protein 1 (Homo sapiens) (UniProt Q9H0H5)
# Sequence (Q9H0H5 whole entry, looked up): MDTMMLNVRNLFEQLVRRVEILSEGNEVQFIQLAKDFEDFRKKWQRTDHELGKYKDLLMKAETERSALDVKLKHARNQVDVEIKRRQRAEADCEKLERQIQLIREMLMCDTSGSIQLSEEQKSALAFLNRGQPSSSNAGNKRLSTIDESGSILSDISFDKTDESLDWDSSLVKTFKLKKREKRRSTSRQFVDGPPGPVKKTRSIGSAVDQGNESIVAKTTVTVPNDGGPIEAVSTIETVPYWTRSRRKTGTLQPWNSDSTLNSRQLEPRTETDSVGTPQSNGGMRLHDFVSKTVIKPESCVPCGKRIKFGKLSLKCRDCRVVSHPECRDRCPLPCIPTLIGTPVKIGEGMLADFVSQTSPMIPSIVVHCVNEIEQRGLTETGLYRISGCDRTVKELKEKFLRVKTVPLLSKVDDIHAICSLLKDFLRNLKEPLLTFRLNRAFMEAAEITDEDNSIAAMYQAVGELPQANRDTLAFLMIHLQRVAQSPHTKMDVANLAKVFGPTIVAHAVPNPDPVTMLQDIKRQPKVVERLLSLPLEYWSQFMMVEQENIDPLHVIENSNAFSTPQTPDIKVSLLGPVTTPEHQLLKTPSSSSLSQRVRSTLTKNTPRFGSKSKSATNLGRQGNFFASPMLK
# testDetails: blockers of MgcRacGAP-driven Rac1 GTP hydrolysis – biochemical, ADP Hunter fluorescence, primary and confirmatory, confirmation (AID 624330);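 also: fluorescence reports GDP produced by GAP-driven GTP hydrolysis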
# assayContext: MgcRacGAP-stimulated Rac1 GTP hydrolysis, at 30 µM, active compounds read high, GST-tagged Rac1 F28L mutant substrate
The whole screen tested about 340,000 compounds, of which about 2,100 (0.62%) were called active. The list is a sample of the results. Potency and affinity values are given separately.
One number for each entry, in %.

For each entry beneath this line, provide reported inhibition.
1. Nc1ccc(C(=O)OCCCc2nc3cc4ccccc4cc3[nH]2)cc1
2. O=C(NCc1ccco1)c1ccccc1
3. Cc1ccc(C(=O)Nc2ncc(C)s2)s1
4. CC(=O)Nc1c2c(nn1-c1ccc(Cl)cc1)CSC2
5. CCc1ccc(CN(C)CCc2ccccn2)cc1
6. Cc1cc(F)ccc1S(=O)(=O)Nc1ncnc2sccc12
7. Cc1ccc(S(=O)(=O)N2CCC(C(=O)N3CCCC(C(F)(F)F)C3)CC2)cc1C (stereo unspecified)
8. CCc1cc(=O)oc2cc(OCC(=O)NCCN3CCOCC3)c(Cl)cc12

1. 14.4
2. 4.89
3. 3.92
4. 2.25
5. 13.2
6. -6.18
7. 5.5
8. 0.13

Kindly give each listed record's inhibition.
1. O=C(NN=Cc1cc(Br)c(O)c(Br)c1)c1ccccc1NS(=O)(=O)c1cccs1
2. Cc1cc(OCn2ccc(C(=O)O)n2)ccc1Cl
3. Cc1cc(OCCCCOc2ccc(S(N)(=O)=O)c(C)c2)ccc1S(N)(=O)=O

[15.4, 15.5, 6.93]

* * *

Provide the recorded inhibition for the entries that follow.
# targetOrTestSystem: Rac GTPase-activating protein 1 (Homo sapiens) (UniProt Q9H0H5)
# testDetails: blockers of MgcRacGAP-driven Rac1 GTP hydrolysis – biochemical, ADP Hunter fluorescence, primary and confirmatory, confirmation (AID 624330);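 also: fluorescence reports GDP produced by GAP-driven GTP hydrolysis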
# assayContext: MgcRacGAP-stimulated Rac1 GTP hydrolysis, at 30 µM, active compounds read high, GST-tagged Rac1 F28L mutant substrate
About 2,100 (0.62%) of roughly 340,000 compounds were called active. Not all results are given here. Results with a measured potency or affinity are listed apart.

Past entries and their recorded results:
Cc1[nH]c2ccccc2c1-c1csc(NC(=O)CN2CCOCC2)n1 | 25.6% (inactive)
COc1cc(/C=N/NC(=O)Nc2ccccc2)ccc1OC(C)=O | 13.7% (inactive)
CCOc1ccccc1CN1CCN(C2CCSCC2)CC1CCO (stereo not drawn) | 7.4% (inactive)
COc1cc(/C=N/N2C(=O)C3C4c5ccccc5C(c5ccccc54)C3C2=O)ccc1O (stereo not drawn) | 4.88% (inactive)
O=C(NC1CCS(=O)(=O)C1)c1cnccn1 (stereo not drawn) | 6.19% (inactive)
CCOc1ccc(NC(=O)C(C)NC(=O)c2ccccc2Cl)cc1S(=O)(=O)N1CCCC1 (stereo not drawn) | -0.23% (inactive)
O=C1c2ccccc2C(=O)N1N=Cc1ccc2c(c1)OCO2 | 5.49% (inactive)
Cc1[nH]c2ccccc2c1-c1csc(NC(=O)CSCC(=O)O)n1 | 19.6% (inactive)

State the recorded inhibition for every item in the following list.
1. O=C(OCC(=O)N1N=C(c2ccc(Cl)cc2)CC1c1ccco1)c1ccccc1O (stereo not drawn)
2. CCOc1ccc(/C=N/NC(=O)Nc2ccccc2)cc1
3. CSc1ccc(C#N)cc1NC(=O)c1ccc(Cl)cc1Cl
4. O=C(CSc1nnc(C2CC2)n1-c1ccccc1)NC1CCS(=O)(=O)C1 (stereo not drawn)
5. CSCCC(NC(=O)c1ccc([N+](=O)[O-])cc1Cl)C(=O)OCC(=O)NC(=O)CN1CCCC1=O (stereo not drawn)
6. Cc1ccc2c(c1)nnn2C1CCN(CC(=O)NNC(=O)c2ccco2)CC1

3.05% (inactive)
10.7% (inactive)
7.34% (inactive)
-2.5% (inactive)
-5.24% (inactive)
0.28% (inactive)

* * *

Assignment: determine reported inhibition for the given compounds.
# targetOrTestSystem: Rac GTPase-activating protein 1 (Homo sapiens) (UniProt Q9H0H5)
# testDetails: blockers of MgcRacGAP-driven Rac1 GTP hydrolysis – biochemical, ADP Hunter fluorescence, primary and confirmatory, confirmation (AID 624330);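 also: fluorescence reports GDP produced by GAP-driven GTP hydrolysis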
# assayContext: MgcRacGAP-stimulated Rac1 GTP hydrolysis, at 30 µM, active compounds read high, GST-tagged Rac1 F28L mutant substrate
Out of some 340,000 compounds screened, about 2,100 (0.62%) were called active. These entries were drawn from the full list. Potency and affinity values are given separately.

Could I get inhibition for every one of these entries?
1. COc1cccc(NC(=O)CN(C)C(=O)/C=C/c2ccc3ccccc3n2)c1
2. CCC(=O)Nc1cccc(C(=O)OCc2cccc([N+](=O)[O-])c2)c1
3. Cc1ccc(S(=O)(=O)/N=C/N(C)C)cc1
4. Cc1ccc(/C=C2/SC(=S)N(CCCC(=O)Nc3cc([N+](=O)[O-])ccc3O)C2=O)cc1
5. CC1=C(C(=O)OC(C)C)C(c2ccc(Br)s2)NC(=O)N1 (stereo not given)

0.53% (inactive)
5.63% (inactive)
4.85% (inactive)
3.56% (inactive)
1.12% (inactive)

* * *

# targetOrTestSystem: Rac GTPase-activating protein 1 (Homo sapiens)
# testDetails: blockers of MgcRacGAP-driven Rac1 GTP hydrolysis – biochemical, ADP Hunter fluorescence, primary and confirmatory, confirmation (AID 624330);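 also: fluorescence reports GDP produced by GAP-driven GTP hydrolysis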
# assayContext: MgcRacGAP-stimulated Rac1 GTP hydrolysis, at 30 µM, active compounds read high, GST-tagged Rac1 F28L mutant substrate
The campaign covered roughly 340,000 compounds. About 2,100 (0.62%) were called active. These entries were drawn from the full list. Results with a measured potency or affinity are listed apart.
propertyLabel: inhibition (%)
Give bare numbers, in %.

Below is a list of compounds. For each, state its recorded inhibition.
1. CC1(C2CC(C(F)(F)F)n3nc(C(=O)O)cc3N2)CC1 (stereo unspecified)
2. CC1CCN(S(=O)(=O)c2cn(CC(=O)N3CCN(C)CC3)c(=O)c3ccccc23)CC1
3. Cc1cc(C(=O)NC2CCCC2)on1
4. CNC(=O)c1ccc(CN(C)C(=O)c2cccc(S(=O)(=O)N3CCc4ccccc4C3)c2)cc1

1: 5.89; 2: -14; 3: 2.61; 4: 15.5

* * *

# targetOrTestSystem: Rac GTPase-activating protein 1 (Homo sapiens)
# testDetails: blockers of MgcRacGAP-driven Rac1 GTP hydrolysis – biochemical, ADP Hunter fluorescence, primary and confirmatory, confirmation (AID 624330);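 also: fluorescence reports GDP produced by GAP-driven GTP hydrolysis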
# assayContext: MgcRacGAP-stimulated Rac1 GTP hydrolysis, at 30 µM, active compounds read high, GST-tagged Rac1 F28L mutant substrate
The campaign covered roughly 340,000 compounds. About 2,100 (0.62%) were called active. These entries were drawn from the full list. Entries with a potency or affinity are not part of this list.
Kindly state inhibition for each of the entries shown.
Give bare numbers, in %.

CC1CCCC=CC2CC(OC(=O)CN(C)C)CC2C(O)C=CC(=O)O1 (stereo not given) | 3.18
CCOCCCNCc1ccc(OC)c(OC)c1 | 13.9
COc1cccc(N2CCN(C(=O)CCc3nnc4ccc(N5CCCC5)nn34)CC2)c1 | 18

Hi team, please reply with inhibition for each item in this list.
1. CCn1nc(C(=O)NCc2nnc3ccccn23)c2ccccc2c1=O
2. NC(=O)C[C@@H]1NC(=O)[C@H](CCC(=O)O)NC(=O)c2cc([N+](=O)[O-])cc(I)c2OCC[C@@H](C(N)=O)NC1=O

2.43
6.13

* * *

# targetOrTestSystem: Rac GTPase-activating protein 1 (Homo sapiens) (UniProt Q9H0H5)
# testDetails: blockers of MgcRacGAP-driven Rac1 GTP hydrolysis – biochemical, ADP Hunter fluorescence, primary and confirmatory, confirmation (AID 624330);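 also: fluorescence reports GDP produced by GAP-driven GTP hydrolysis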
# assayContext: MgcRacGAP-stimulated Rac1 GTP hydrolysis, at 30 µM, active compounds read high, GST-tagged Rac1 F28L mutant substrate
In all, about 340,000 compounds went through this assay and about 2,100 (0.62%) were called active. Only a sample is shown. Measured potencies and affinities stand elsewhere.
Please go through the items and note down their inhibition.
Give bare numbers, in %.

These recorded examples may help you get a feel for the data.
O=C(c1ccc(Cl)c(S(=O)(=O)N2CCCCC2)c1)N1CCN(c2ccccc2)CC1 | 11.4
CCN1C(=NCCOC)N[C@@H](CCc2ccccc2)[C@H](C(=O)OC)[C@H]1C | 12.5

Quick one: give me inhibition for each item below, same order please.
1. CC(=O)Nc1cccc(NC(=O)c2ccccc2OCc2ccccc2)c1
2. CCCCNC(=O)CSc1nc2ccccc2n1S(=O)(=O)c1ccc(Br)cc1
3. O=C(Nc1ccc(-c2nc3ccccc3[nH]2)cc1)c1ccc2c(c1)OCO2
4. Cc1c(N=C2C(=O)Nc3ccccc32)c(=O)n(-c2ccccc2)n1C
5. CCc1ccc(N=C2NC(=O)/C(=C/c3cc(OC)c(O)c(OC)c3)S2)cc1
6. COc1ccc(N2CCN(C(=O)c3cc(C4CC4)nn3-c3ccccc3)CC2)cc1
7. O=C(Nc1ccccc1)Nc1nncs1

[9.89, 2.01, 0.3, 1.01, 14.6, 27.4, 9.87]
